Data origin, for the record: patent US10077261B2

Biological target: hFASN enzyme (full length) (Homo sapiens, UniProt P49327)
Construct: 10 μL hFASN enzyme (full length, 300 ng, purified in house); made in house
Sequence (P49327 whole entry): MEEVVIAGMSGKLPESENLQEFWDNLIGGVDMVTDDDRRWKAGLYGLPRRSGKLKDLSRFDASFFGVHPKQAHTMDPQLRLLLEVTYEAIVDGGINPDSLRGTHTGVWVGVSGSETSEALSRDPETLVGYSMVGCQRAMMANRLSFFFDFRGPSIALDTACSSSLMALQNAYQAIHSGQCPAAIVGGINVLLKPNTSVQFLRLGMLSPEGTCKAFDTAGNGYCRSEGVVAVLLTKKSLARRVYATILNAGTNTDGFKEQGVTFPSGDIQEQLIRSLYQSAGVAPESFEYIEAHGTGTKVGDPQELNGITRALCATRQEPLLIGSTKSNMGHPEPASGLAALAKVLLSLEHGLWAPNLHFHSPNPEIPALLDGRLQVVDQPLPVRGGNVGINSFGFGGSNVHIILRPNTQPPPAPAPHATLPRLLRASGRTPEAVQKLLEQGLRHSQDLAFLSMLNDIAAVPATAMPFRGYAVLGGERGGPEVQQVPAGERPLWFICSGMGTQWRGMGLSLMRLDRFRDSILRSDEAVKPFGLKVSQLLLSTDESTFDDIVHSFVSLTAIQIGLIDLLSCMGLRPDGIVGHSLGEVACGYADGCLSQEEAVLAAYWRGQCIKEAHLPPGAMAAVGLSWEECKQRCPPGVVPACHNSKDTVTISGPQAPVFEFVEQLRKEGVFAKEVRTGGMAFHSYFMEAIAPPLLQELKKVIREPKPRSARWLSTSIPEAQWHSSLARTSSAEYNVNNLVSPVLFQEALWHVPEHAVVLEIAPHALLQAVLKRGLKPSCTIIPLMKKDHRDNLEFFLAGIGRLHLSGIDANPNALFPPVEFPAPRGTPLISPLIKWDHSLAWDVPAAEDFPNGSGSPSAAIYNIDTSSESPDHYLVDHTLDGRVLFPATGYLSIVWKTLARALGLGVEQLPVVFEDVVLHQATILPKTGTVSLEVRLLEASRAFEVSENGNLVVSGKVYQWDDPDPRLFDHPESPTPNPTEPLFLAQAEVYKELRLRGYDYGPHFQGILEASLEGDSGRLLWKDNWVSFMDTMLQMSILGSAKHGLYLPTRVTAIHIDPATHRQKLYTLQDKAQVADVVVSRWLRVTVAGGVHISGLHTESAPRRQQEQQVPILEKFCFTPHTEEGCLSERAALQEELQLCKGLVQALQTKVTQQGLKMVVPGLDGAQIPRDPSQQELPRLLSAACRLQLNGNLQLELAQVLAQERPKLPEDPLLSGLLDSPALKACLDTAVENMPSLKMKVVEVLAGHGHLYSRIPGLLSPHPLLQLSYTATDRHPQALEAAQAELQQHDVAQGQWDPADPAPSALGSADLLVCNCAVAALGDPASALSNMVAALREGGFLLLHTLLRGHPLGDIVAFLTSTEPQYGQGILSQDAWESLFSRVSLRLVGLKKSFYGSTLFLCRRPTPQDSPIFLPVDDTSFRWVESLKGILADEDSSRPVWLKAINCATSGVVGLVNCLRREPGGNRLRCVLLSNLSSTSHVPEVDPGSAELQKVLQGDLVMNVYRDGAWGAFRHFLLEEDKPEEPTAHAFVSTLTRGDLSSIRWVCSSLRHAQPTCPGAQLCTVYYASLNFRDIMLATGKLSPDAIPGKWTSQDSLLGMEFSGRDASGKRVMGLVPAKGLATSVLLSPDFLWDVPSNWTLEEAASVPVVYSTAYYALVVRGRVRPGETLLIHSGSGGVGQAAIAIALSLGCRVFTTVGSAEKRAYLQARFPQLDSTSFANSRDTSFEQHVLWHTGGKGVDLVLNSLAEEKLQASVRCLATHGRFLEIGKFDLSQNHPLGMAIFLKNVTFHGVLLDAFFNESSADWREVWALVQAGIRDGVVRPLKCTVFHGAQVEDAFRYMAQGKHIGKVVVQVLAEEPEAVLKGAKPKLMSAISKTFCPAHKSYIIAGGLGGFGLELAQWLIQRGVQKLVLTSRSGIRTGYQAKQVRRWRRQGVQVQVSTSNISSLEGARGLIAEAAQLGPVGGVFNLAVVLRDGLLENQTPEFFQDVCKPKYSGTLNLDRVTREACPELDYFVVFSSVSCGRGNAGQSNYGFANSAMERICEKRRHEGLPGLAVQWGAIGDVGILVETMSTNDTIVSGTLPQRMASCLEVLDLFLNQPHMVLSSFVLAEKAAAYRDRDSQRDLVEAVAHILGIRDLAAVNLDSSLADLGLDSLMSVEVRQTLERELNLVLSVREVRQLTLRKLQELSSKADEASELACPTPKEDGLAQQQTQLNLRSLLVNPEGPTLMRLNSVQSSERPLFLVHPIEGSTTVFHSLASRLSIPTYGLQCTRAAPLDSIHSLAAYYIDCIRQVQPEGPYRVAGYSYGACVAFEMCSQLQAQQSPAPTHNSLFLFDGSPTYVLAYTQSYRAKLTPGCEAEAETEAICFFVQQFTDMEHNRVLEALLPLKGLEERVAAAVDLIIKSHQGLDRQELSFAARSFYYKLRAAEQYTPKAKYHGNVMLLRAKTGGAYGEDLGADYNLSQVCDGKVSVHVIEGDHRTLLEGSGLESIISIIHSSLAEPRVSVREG
Test: Fatty Acid Synthase (FASN) inhibition scintillation proximity assay
Assay type: biochemical
Details: read-out: Human FASN % inhibition @ 10 μM, 10 μM test compound
QUANTITY: inhibition at 10 µM

compound=Cc1cc(-c2ccc3cc(C#N)ccc3c2)ccc1C1=NC2(CC2)C(=O)N1CC1CN(C(=O)C2(F)CC2)C1 recorded_measurement=102%
compound=O=C(Nc1cccc(-c2ccc(C3=NC4(CC4)C(=O)N3CC3CN(C(=O)C4CC4)C3)c(F)c2)c1)C1CC1 recorded_measurement=98%
compound=COC(=O)N1CC2(C1)N=C(c1ccc(-c3ccc(-c4cnn(C)c4)cc3)cc1)N(C[C@@H]1CCN(C(=O)c3nccs3)C1)C2=O recorded_measurement=6%
compound=CC(C)C(=O)N1CCC2(CC1)N=C(c1ccc(-c3ccc4occc4c3)cc1)N(CC1CN(C(=O)C3CC3)C1)C2=O recorded_measurement=90.7%
compound=O=C(C1CC1)N1CC(CN2C(=O)C3(CC3)N=C2c2ccc(-c3cnc4ccccc4c3)cc2)C1 recorded_measurement=96%
compound="COC(=O)N1CC2(C1)N=C(c1ccc(-c3ccc4cccnc4c3)cc1)N(C[C@@H]1CCN(C(=O)C(C)O)C1)C2=O (some centres unmarked)" recorded_measurement=95%
compound=O=C(C1CC1)N1CC(CN2C(=O)C3(CC3)N=C2c2ccc(-c3cc4ccccc4cn3)cc2)C1 recorded_measurement=96%
compound=O=C(N1CC(CN2C(=O)C3(CC3)N=C2c2ccc(-c3ccc4ccccc4c3)cc2F)C1)C1(O)CC1 recorded_measurement=101%
compound=O=C(C1CC1)N1CC[C@@H](CN2C(=O)C3(CC3)N=C2c2ccc(-c3cccc(OC(F)(F)F)c3)cc2)C1 recorded_measurement=38%
compound=COC(=O)N1CC2(C1)N=C(c1ccc(-c3ccc4occc4c3)cc1)N(C[C@@H]1CCN(C(=O)C(F)(F)F)C1)C2=O recorded_measurement=37%
compound="CC(O)C(=O)N1CC(CN2C(=O)C3(CCOC3)N=C2c2ccc(-c3ccc(-c4cnn(C)c4)cc3)cc2)C1 (centres unmarked)" recorded_measurement=60%
compound=Cc1cc(-c2ccc(C#N)cc2F)ccc1C1=NC2(CC2)C(=O)N1CC1CN(C(=O)C2(C)CC2)C1 recorded_measurement=108%
compound=Cn1nccc1-c1ccc(-c2ccc(C3=NC4(CC4)C(=O)N3CC3CN(C(=O)C4CC4)C3)cc2)cc1 recorded_measurement=56%
compound=Cc1cc(-c2ccc3sccc3c2)ccc1C1=NC2(CC2)C(=O)N1C[C@@H]1CCN(C(=O)C2CC2)C1 recorded_measurement=107%

====

Molecular target: hFASN enzyme (full length) (Homo sapiens, UniProt P49327)
Construct: 10 μL hFASN enzyme (full length, 300 ng, purified in house); made in house
Experiment: Fatty Acid Synthase (FASN) inhibition scintillation proximity assay
Format: biochemical
Conditions: read-out: Human FASN % inhibition @ 10 μM, 10 μM test compound
QUANTITY: inhibition at 10 µM (%)

molecule=Cc1cc(-c2ccc3cc(C)c(Cl)nc3c2)ccc1C1=NC2(CC2)C(=O)N1CC1CN(C(=O)C2(C)CC2)C1 subject_of_test="hFASN enzyme (full length) (Homo sapiens, UniProt P49327)" recorded_measurement=102
molecule="CS(=O)(=O)N1CC(CN2C(=O)C3(CCOC3)N=C2c2ccc(-c3ccc4occc4c3)cc2)C1 (centres unmarked)" subject_of_test="hFASN enzyme (full length) (Homo sapiens, UniProt P49327)" recorded_measurement=6
molecule=Cn1ncc2cc(-c3ccc(C4=NC5(CC5)C(=O)N4C[C@@H]4CCN(C(=O)C5(O)CC5)C4)cc3)ccc21 subject_of_test="hFASN enzyme (full length) (Homo sapiens, UniProt P49327)" recorded_measurement=102
molecule="CC(O)C(=O)N1CC(CN2C(=O)C3(CCOCC3)N=C2c2ccc(-c3ccc4occc4c3)cc2)C1 (centres unmarked)" subject_of_test="hFASN enzyme (full length) (Homo sapiens, UniProt P49327)" recorded_measurement=61
molecule=Cn1ncc2cc(-c3ccc(C4=NC5(CCOCC5)C(=O)N4CC4CN(C(=O)N5CCCC5)C4)cc3)ccc21 subject_of_test="hFASN enzyme (full length) (Homo sapiens, UniProt P49327)" recorded_measurement=64
molecule=Cn1nc(Cl)c2ccc(-c3ccc(C4=NC5(CC5)C(=O)N4CC4CN(C(=O)C5CC5)C4)c(F)c3)cc21 subject_of_test="hFASN enzyme (full length) (Homo sapiens, UniProt P49327)" recorded_measurement=97
molecule=Cn1cc(-c2ccc(-c3ccc(C4=NC5(CC5)C(=O)N4C[C@@H]4CCN(C(=O)C5CC5)C4)cc3)cc2)cn1 subject_of_test="hFASN enzyme (full length) (Homo sapiens, UniProt P49327)" recorded_measurement=101
molecule=Cc1cc(C2=NC3(CC3)C(=O)N2C[C@@H]2CCN(C(=O)C3CC3)C2)ccc1-c1ccc2[nH]ccc2c1 subject_of_test="hFASN enzyme (full length) (Homo sapiens, UniProt P49327)" recorded_measurement=98
molecule="Cc1cc(-c2ccc3c(cnn3C)c2)ccc1C1=NC2(CC2)C(=O)N1CC1CN(C(=O)C2CCCO2)C1 (stereo in doubt) [compound 206]" subject_of_test="hFASN enzyme (full length) (Homo sapiens, UniProt P49327)" recorded_measurement=101
molecule=O=C(C1CC1)N1CC(CN2C(=O)C3(CCN(C(=O)C(F)(F)F)CC3)N=C2c2ccc(-c3ccc4occc4c3)cc2)C1 subject_of_test="hFASN enzyme (full length) (Homo sapiens, UniProt P49327)" recorded_measurement=63
molecule=Cc1cc(-c2ccc3cc(C#N)ccc3c2)ccc1C1=NC2(CC2)C(=O)N1CC1CN(C(=O)C2(O)CC2)C1 subject_of_test="hFASN enzyme (full length) (Homo sapiens, UniProt P49327)" recorded_measurement=105
molecule=Cc1ccc2cc(-c3ccc(C4=NC5(CC5)C(=O)N4CC4CN(C(=O)C5(C)CC5)C4)c(C)c3)ccc2c1 subject_of_test="hFASN enzyme (full length) (Homo sapiens, UniProt P49327)" recorded_measurement=97
molecule="CC(O)C(=O)N1CC(CN2C(=O)C3(CCOCC3)N=C2c2ccc(-c3ccc(-c4cnn(C)c4)cc3)cc2)C1 (centres unmarked)" subject_of_test="hFASN enzyme (full length) (Homo sapiens, UniProt P49327)" recorded_measurement=43
molecule="O=C(N1CCCC1)N1CC(CN2C(=O)C3(CCOC3)N=C2c2ccc(-c3ccc4occc4c3)cc2)C1 (centres unmarked)" subject_of_test="hFASN enzyme (full length) (Homo sapiens, UniProt P49327)" recorded_measurement=63

====

Target: hFASN enzyme (full length) (Homo sapiens)
Construct: 10 μL hFASN enzyme (full length, 300 ng, purified in house); made in house
Test: Fatty Acid Synthase (FASN) inhibition scintillation proximity assay
Type: biochemical
Conditions: read-out: Human FASN % inhibition @ 10 μM, 10 μM test compound
Procedure: In this assay, inhibition of FASN activity is measured using ^3H-acetyl-CoA and malonyl-CoA as substrates. ^3H-Acetyl CoA is converted to ^3H-palmitate through a series of reactions by the FASN protein, which contains 7 functional domains and carries out 7 enzymatic reactions to ultimately produce ^3H-palmitate. The assay principle is based upon the fact that ^3H-acetyl-CoA is hydrophilic and the end product, ^3H-palmitate is hydrophobic. […]
Reported inhibition at 10 µM values are given for each entry in this list.
QUANTITY: inhibition at 10 µM (%)

record_smiles=Cc1cc(-c2ccc3sc(C)c(C)c3c2)ccc1C1=NC2(CC2)C(=O)N1CC1CN(C(=O)C2CC2)C1 quantity="inhibition at 10 µM" units_label=% recorded_measurement=110
record_smiles=Cc1cc(-c2ccc3cn(C)nc3c2)ccc1C1=NC2(CC2)C(=O)N1CC1CN(C(=O)C2(C)CC2)C1 quantity="inhibition at 10 µM" units_label=% recorded_measurement=103
record_smiles=N#Cc1cc2cc(-c3ccc(C4=NC5(CC5)C(=O)N4CC4CN(C(=O)C5CC5)C4)cc3)ccc2o1 quantity="inhibition at 10 µM" units_label=% recorded_measurement=93
record_smiles=COC(=O)N1CC[C@@H](CN2C(=O)C3(CCOCC3)N=C2c2ccc(-c3ccc4cccnc4c3)cc2)C1 quantity="inhibition at 10 µM" units_label=% recorded_measurement=87
record_smiles=O=C(C1CC1)N1CC(CN2C(=O)C3(CC3)N=C2c2ccc(-c3cccc4[nH]ncc34)cc2)C1 quantity="inhibition at 10 µM" units_label=% recorded_measurement=102
record_smiles=O=C(C1CC1)N1CC[C@@H](CN2C(=O)C3(CCCC3)N=C2c2ccc(-c3ccc4sccc4c3)cc2F)C1 quantity="inhibition at 10 µM" units_label=% recorded_measurement=105
record_smiles=O=C(C1CC1)N1CC[C@@H](CN2C(=O)C3(CCCC3)N=C2c2ccc(-c3ccncc3)cc2)C1 quantity="inhibition at 10 µM" units_label=% recorded_measurement=44.3
